- Test system: CCRF-CEM leukemia
- Assay Remarks: NCI-60 one-dose screen, 48 h (100 = growth as untreated, 0 = no growth, -100 = all killed)
- Condition Set: 10 µM unless noted
About 83,000 compounds went through this panel and 20% of them were active in at least one assay; those are over-represented in the sample as a whole.
Measured Parameter: growth (%)
Numbers only, in %.

Observe how each entry below is paired with its result.
>  <Molecule>
CNC(=O)c1cc(Oc2ccc3c(c2)sc2nc(-c4cc(C(F)(F)F)cc(C(F)(F)F)c4)cn23)ccn1

>  <growth [%]>
64.1

$$$$
>  <Molecule>
C/C(=C(\c1ccc(OCCN2CCCCCC2)cc1)c1ccc(OC(=O)c2ccccc2)cc1)c1ccc(Cl)cc1

>  <growth [%]>
16

$$$$
>  <Molecule>
COc1cc(OC)c2c(=O)c3c(CC=C(C)C)cc(OC)c(O)c3oc2c1

>  <growth [%]>
76.9

$$$$

Take each entry in turn and give its growth.
1. COCCn1cc(-c2csc(-c3c[nH]c4ccccc34)n2)c2cccnc21
2. COc1c2c(cc3c1C(=O)N[C@@H]1[C@@H](O)[C@@H](O)[C@H](O)C[C@@H]31)OCCO2
3. Cc1cccc(NC(=O)Cn2cc(CN3CCN(c4ccnc5cc(Cl)ccc45)CC3)nn2)c1

1: 36.7; 2: 105; 3: -32.9

Take each entry in turn and give its growth.
1. Cc1cc(O)c(=O)cc2c1C[C@H]1CC(C)(C)/C=C/C[C@]3(C)Oc4cc(=O)c(O)cc(C)c4C[C@H]3C[C@H](O)[C@@]1(C)O2
2. Cn1c(=O)c2[nH]c(SC/C(=N/O)c3ccc(Br)cc3)nc2n(C)c1=O
3. N#CSc1c[nH]c2ccc(/C=C/C(=O)/C=C(O)/C=C/c3ccc4[nH]cc(SC#N)c4c3)cc12
4. CC1SC(c2ccccc2O)N(NC(=O)CCC(=O)c2nc3ncccc3[nH]2)C1=O (stereo unspecified)
5. CCOC(=O)/C=C1\S/C(=N\Nc2cc(=O)[nH]c3ccc(Br)cc23)N(c2ccccc2)C1=O
6. CCCCO[C@@H]1C=C2[C@H]3CC(C)(C)C(=O)C[C@]3(C(=O)O[C@@H]3O[C@H](CO[C@@H]4O[C@H](CO)[C@@H](OC5OC(C)C(O)C(O)C5O)[C@H](O)[C@H]4O)[C@@H](O)[C@H](O)[C@H]3O)CC[C@@]2(C)[C@]2(C)CC[C@H]3C(C)(C)C(=O)CC[C@]3(C)[C@@H]12 (stereo partly specified)
7. C=C(C)[C@@H]1CC[C@]2(CO)CC[C@]3(C)[C@H](CC[C@@H]4[C@@](C)(CCCN)[C@H](C(=C)C)CC[C@]43C)[C@@H]12
8. COc1cc(Cc2cc(-c3ccccc3)nn(Cc3ccccc3)c2=O)cc(OC)c1OC

[9.98, 83.9, 2.04, 116, 10.5, 43.3, -16, 34.8]

Take each entry in turn and give its growth.
1. COc1ccc(C2[C@@H](c3ccccc3)C(=O)N2c2cc(OC)c(OC)c(OC)c2)cc1F (stereo partly specified)
2. COc1cc(Cc2cc(OC)c(O)c(OC)c2)cc(OC)c1O

1. 6.85
2. 59.9

###

- Test system: MALME-3M melanoma
- Assay Remarks: NCI-60 one-dose screen, 48 h
- Condition Set: 10 µM unless noted
The panel holds about 83,000 compounds, 20% with a hit somewhere; the sample as a whole holds those more often. The source made the active and inactive calls. Rule for the calls: active = growth percent below 10; inactive = the rest.
Answer with one of the outcomes given here: yes for active, no for inactive

Here's what some known entries look like.
>  <Molecule>
CCN(CC)C(=O)C1=C(C)NC(=O)NC1c1ccc2c(c1)OCO2 (stereo not given)

>  <Label Class>
no

$$$$
>  <Molecule>
O=C(Nc1ncc(Cc2ccccc2)s1)c1sc2ccccc2c1Cl

>  <Label Class>
no

$$$$
>  <Molecule>
CN(C)CCCC1(c2ccc(F)cc2)OCc2cc(-c3csc4ccccc34)ccc21 (stereo not given)

>  <Label Class>
yes

$$$$
>  <Molecule>
Cc1ccc(S(=O)(=O)c2nc(-c3ccccc3)oc2SCC(N)=O)cc1

>  <Label Class>
no

$$$$
>  <Molecule>
c1ccc(-c2ccc3c(c2)C2(CCNCC2)CN3)cc1

>  <Label Class>
no

$$$$

As a next step, examine the molecule that follows.
Hi, sorry to bother you, what did the test record for CC(C)C1C2=C(NCCN1C(=O)c1ccncc1)C(C)(C)N(Cc1ccccc1)C2=O (stereo not given) ?
no

###

- Tested on: HCT-15 colon
- Assay Remarks: NCI-60 one-dose screen, 48 h (100 = growth as untreated, 0 = no growth, -100 = all killed)
- Condition Set: 10 µM unless noted
About 83,000 compounds went through this panel and 20% of them were active in at least one assay; those are over-represented in the sample as a whole.
Measured Parameter: growth (%)
Answers are plain numbers, in %.

Observe how each entry below is paired with its result.
>  <Compound>
O=C(/C=C/C12c3ccccc3C(c3ccccc31)C1C(=O)NC(=O)C12)c1ccco1 (stereo not drawn)

>  <Endpoint Unit>
%

>  <Value Observed>
21.7

$$$$
>  <Compound>
CC(=O)N1N=C(c2ccc(Nc3nc(Nc4ccc(F)cc4)nc(Nc4ccc(F)cc4)n3)cc2)CC1c1ccc(N(C)C)cc1 (stereo not drawn)

>  <Endpoint Unit>
%

>  <Value Observed>
46.9

$$$$
>  <Compound>
Cc1cc(O)c(=O)cc2c1C[C@H]1CC(C)(C)/C=C/C[C@]3(C)Oc4cc(=O)c(O)cc(C)c4C[C@H]3C[C@H](O)[C@@]1(C)O2

>  <Endpoint Unit>
%

>  <Value Observed>
17.3

$$$$
>  <Compound>
CCOC(=O)C1=C(CCl)N(C)C(=O)NC1c1ccc2c(c1)OCO2 (stereo not drawn)

>  <Endpoint Unit>
%

>  <Value Observed>
34.4

$$$$
>  <Compound>
O=C1/C(=C/c2cccc(Br)c2)COc2ccc(O)cc21

>  <Endpoint Unit>
%

>  <Value Observed>
21.4

$$$$
>  <Compound>
Cc1ccc(Cc2cnc(NC(=O)/C=C/c3ccc(C)o3)s2)cc1

>  <Endpoint Unit>
%

>  <Value Observed>
19.9

$$$$

Take each entry in turn and give its growth.
1. C=C(C)[C@@H]1CC[C@]2(C(=O)N3CCN(C)CC3)CC[C@]3(C)[C@H](CC[C@@H]4[C@@](C)(CCC(=O)O)[C@H](C(=C)C)CC[C@]43C)[C@@H]12
2. O=c1oc2ccccc2cc1-c1nn(-c2ccccc2)cc1-c1nn[nH]n1

[82.5, 100]

###

- System: PC-3 prostate
- Assay Remarks: NCI-60 one-dose screen, 48 h (100 = growth as untreated, 0 = no growth, -100 = all killed)
- Condition Set: 10 µM unless noted
The panel holds about 83,000 compounds, 20% with a hit somewhere; the sample as a whole holds those more often. Calls of active or inactive are those of the source. The calls were made as follows: active = growth percent below 10; inactive = the rest.
Measured Parameter: growth

Observe how each entry below is paired with its result.
>  <Compound>
COc1cc2c(c(OC)c1OC)CCC(c1cccc(C(=O)Nc3ccc(Br)cc3)c1)O2 (stereo not given)

>  <Target Entity>
PC-3 prostate

>  <growth>
39.4% (inactive)

$$$$
>  <Compound>
C/C(=N\Nc1ccccc1)c1ccc(NC2=CC(=O)c3ccccc3C2=O)cc1

>  <Target Entity>
PC-3 prostate

>  <growth>
40.1% (inactive)

$$$$
>  <Compound>
c1cc(OCCN2CCCCCC2)ccc1CNc1ccc2nc(CCC3CCCCC3)[nH]c2c1

>  <Target Entity>
PC-3 prostate

>  <growth>
50.5% (inactive)

$$$$

Take each entry in turn and give its growth.
1. Cc1cc(NCCCNc2ccnc3cc(Cl)ccc23)nc(Nc2ccc(C(=O)N3CCCCC3)cc2)n1
2. Fc1ccc2[nH]cc(-c3nc(-c4c[nH]c5c(Cl)nccc45)cs3)c2c1

["50.5% (inactive)", "31.5% (inactive)"]

###

Exercise: for every item that follows, state its recorded growth.
- Test system: A498 renal
- Assay Remarks: NCI-60 one-dose screen, 48 h (100 = growth as untreated, 0 = no growth, -100 = all killed)
- Condition Set: 10 µM unless noted
Compounds without any hit were thinned out: in the full panel of roughly 83,000, 20% have a hit.
One number for each entry, in %.

Observe how each entry below is paired with its result.
>  <Molecule>
COc1cc(/C=N/NC(=O)c2ccc(-n3cc(-c4ccccc4)nn3)cc2)cc(OC)c1OC

>  <Endpoint Unit>
%

>  <growth>
71.1

$$$$
>  <Molecule>
COc1cc2c(c(OC)c1OC)C(=O)CC(c1cccc(C(=O)Nc3ccccc3Br)c1)O2 (stereo not drawn)

>  <Endpoint Unit>
%

>  <growth>
91

$$$$

Switching to the query record.
Memo: COc1ccc(NC(=O)c2ccc(Nc3ncnc4c3cnn4-c3cccc(F)c3)cc2)cc1 , reported growth: 57.3

###

Exercise: for every item that follows, state its recorded growth.
- System: SW-620 colon
- Assay Remarks: NCI-60 one-dose screen, 48 h (100 = growth as untreated, 0 = no growth, -100 = all killed)
- Condition Set: 10 µM unless noted
Compounds without any hit were thinned out: in the full panel of roughly 83,000, 20% have a hit. The source made the active and inactive calls. How the source made its calls: active means growth percent below 10; inactive means the rest.

Observe how each entry below is paired with its result.
>  <Compound>
OC1CSSC1Cn1cnc2c(Nc3ccc(OCc4cccc(F)c4)c(Cl)c3)ncnc21 (stereo not drawn)

>  <growth>
-20.3% (active)

$$$$
>  <Compound>
CS(=O)/C(C#N)=C\C=C\c1cccc(Cl)c1 (stereo not drawn)

>  <growth>
14.9% (inactive)

$$$$
>  <Compound>
COc1ccc(-c2cc(-c3cc(OC)ccc3OC)nc(SCC(C)=O)c2C#N)cc1

>  <growth>
92.1% (inactive)

$$$$
>  <Compound>
CN(C)c1ccc([C@@H](C(=O)Nc2cccc([N+](=O)[O-])c2)N(C(=O)c2cc3ccccc3[nH]2)c2cccc([N+](=O)[O-])c2)cc1

>  <growth>
98.7% (inactive)

$$$$
>  <Compound>
COC1C(O)CC(OC2CC(OC3CC(O[C@@H]4C(=O)c5c(cc6cc(OC7CC(OC8CC(O)C(O)C(C)O8)C(O)C(C)O7)c(C)c(O)c6c5O)CC4[C@H](OC)C(=O)O)OC(C)C3O)OC(C)C2O)OC1C (stereo partly drawn)

>  <growth>
32% (inactive)

$$$$

Take each entry in turn and give its growth.
1. COc1ccc(-c2nc3c(c(-c4ccc(Cl)cc4)nn3-c3ccccc3)c(-c3ccccc3)c2C#N)cc1
2. C1CCC(N2CN3c4nonc4N4CN(C5CCCCC5)CN5c6nonc6N(C2)C3C45)CC1 (stereo not drawn)

104% (inactive)
92.8% (inactive)

Memo: Cc1nc2ccccc2c(/C=C/c2ccc(F)cc2)c1C(=O)/C=C/c1ccccc1 , reported growth: -1.98% (active)

These data points were gathered from PubChem BioAssay (NCI).
